# target.of.assay: T1, human BCMA-hFc kih monovalent recombinant protein (human, UniProt P0DOX5 223-449 = IgG part)
# T1 construct: Knob-into-hole heterodimer with one BCMA arm, expressed in HEK293E; also called human BCMA-hFc recombinant protein
# procedure.text: SPR (Biacore T200), BCMA-hFc captured on Protein A chip, Fab as analyte, 1:1 Langmuir
Recorded kon, one value per entry.

15H10 Fab (Fab, V domains shown, Murine BCMA Fab, Ni-NTA purified) VH: EVQLQQSGPELKKPGETVKISCKASGYTFTNFGMNWVRQTPGKALKWMGWINTYTGDLIYGDDFKGRFAFSLETSASTAYLQINNLKNEDTATYFCARGEIYYGYDVGFAYWGQGTLVTVSA VL: DIVLTQSPASLAVSLGQRATISCRASKSVSTSGYSYMHWYQQKPGQPPKLLIYLASNLESGVPARFSGSGSGTDFTLNIHPVEEEDAATYYCQHSRELPWTFGGGTKLEIK    37800 M⁻¹ s⁻¹
3G11 Fab (Fab, V domains shown, Murine BCMA Fab from phage library, expressed in TG1 periplasm, purified by Ni-NTA) VH: EIQLVQSGPELKKPGETVKISCKASGYIFTNFGMNWVRQAPGKALKWMGWINTYTGEQIYADDFKGRFAFSLETSASTAYLQINNLKNEDTATYFCARGEIYYGYDVGFVYWGQGTLVTVSA VL: DIVLTQSPASLTVSLGQRATISCRASKSVSTSGYSYMHWYQQKPGQPPKLLIYLASDLESGVSARFSGSGSGTDFTLNIHPVEEEDAATYYCQHSRELPWTFGGGTKLEIK    33300 M⁻¹ s⁻¹

Lookup: Data request, read-out kon, for 40C6 Fab (Fab, V domains shown, Murine BCMA Fab, Ni-NTA purified) VH: EIQLVQSGPELKKPGETVKISCKASGYIFTNFGMNWVRQAPGKALKWMGWINTYTGEQIYADDFKGRFAFSLETSASTAYLQINNLKNEDTATYFCARGEIYYGYDVGFVYWGQGTLVTVSA VL: DIVLTQSPASLAISLGQRATISCRASRSVTTSGYSYIHWYQQKPGQPPKLLIYLASDLEAGVPARFSGSGSGTDFTLNIHPVEEEDAATYYCQHSRELPWTFGGGTKLEIK
Found: 42100 M⁻¹ s⁻¹
